test.system: Metabotropic glutamate receptor 5 (Homo sapiens, UniProt P41594)
Sequence (P41594 whole entry): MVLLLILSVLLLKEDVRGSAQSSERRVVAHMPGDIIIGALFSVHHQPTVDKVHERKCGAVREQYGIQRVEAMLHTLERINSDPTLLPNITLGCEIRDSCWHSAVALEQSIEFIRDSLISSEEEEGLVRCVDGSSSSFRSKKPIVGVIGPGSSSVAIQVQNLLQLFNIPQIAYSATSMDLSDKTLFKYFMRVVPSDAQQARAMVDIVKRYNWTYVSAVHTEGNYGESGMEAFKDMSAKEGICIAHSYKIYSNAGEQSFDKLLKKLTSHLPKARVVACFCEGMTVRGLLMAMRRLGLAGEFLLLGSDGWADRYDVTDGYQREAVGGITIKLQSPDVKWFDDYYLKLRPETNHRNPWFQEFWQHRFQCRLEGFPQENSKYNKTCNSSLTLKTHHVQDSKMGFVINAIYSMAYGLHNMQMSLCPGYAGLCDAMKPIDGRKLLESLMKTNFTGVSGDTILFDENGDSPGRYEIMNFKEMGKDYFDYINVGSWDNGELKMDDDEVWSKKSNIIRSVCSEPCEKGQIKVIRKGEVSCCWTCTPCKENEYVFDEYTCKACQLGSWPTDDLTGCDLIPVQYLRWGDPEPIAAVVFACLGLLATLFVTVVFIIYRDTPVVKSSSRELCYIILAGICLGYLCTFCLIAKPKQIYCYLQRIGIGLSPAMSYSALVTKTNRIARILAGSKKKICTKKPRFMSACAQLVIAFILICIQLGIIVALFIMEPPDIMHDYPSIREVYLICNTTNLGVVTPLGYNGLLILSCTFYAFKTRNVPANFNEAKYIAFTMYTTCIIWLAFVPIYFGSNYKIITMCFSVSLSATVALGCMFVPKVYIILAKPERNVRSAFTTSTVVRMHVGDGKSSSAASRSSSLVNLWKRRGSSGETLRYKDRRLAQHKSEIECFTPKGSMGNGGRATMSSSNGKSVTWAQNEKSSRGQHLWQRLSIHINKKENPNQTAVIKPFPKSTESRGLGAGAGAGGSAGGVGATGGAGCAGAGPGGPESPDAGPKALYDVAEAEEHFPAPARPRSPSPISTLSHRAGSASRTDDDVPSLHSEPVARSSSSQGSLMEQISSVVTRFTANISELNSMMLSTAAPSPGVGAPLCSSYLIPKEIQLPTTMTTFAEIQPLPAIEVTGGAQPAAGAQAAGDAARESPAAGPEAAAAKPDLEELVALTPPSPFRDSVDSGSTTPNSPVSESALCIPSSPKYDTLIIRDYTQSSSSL
pKi: −log10 of the molar value.

>  <structure>
N[C@@H](Cn1oc(=O)[nH]c1=O)C(=O)O

>  <pKi>
< 5.00

$$$$
